# MEASUREMENT TARGET: HIV-1 Env of ZM197.7 (HIV-1)
# ASSAY PROTOCOL: cell-based or functional assay
The reader will find reported neutralization IC50 values listed item by item below.
Respond numerically; units are µg/mL and should not be typed.

Q: neutralization IC50 for CAP256-VRC26.04 (antibody, V domains shown) VH: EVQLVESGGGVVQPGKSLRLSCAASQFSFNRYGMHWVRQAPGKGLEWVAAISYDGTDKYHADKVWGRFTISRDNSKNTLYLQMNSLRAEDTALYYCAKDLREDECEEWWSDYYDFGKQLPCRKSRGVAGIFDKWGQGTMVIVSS VL: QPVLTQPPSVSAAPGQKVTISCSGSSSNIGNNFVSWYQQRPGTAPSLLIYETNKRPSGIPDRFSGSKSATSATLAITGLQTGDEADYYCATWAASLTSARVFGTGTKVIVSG ?
Ans: 0.254

Q: neutralization IC50 for CAP256-VRC26.05 (antibody, V domains shown) VH: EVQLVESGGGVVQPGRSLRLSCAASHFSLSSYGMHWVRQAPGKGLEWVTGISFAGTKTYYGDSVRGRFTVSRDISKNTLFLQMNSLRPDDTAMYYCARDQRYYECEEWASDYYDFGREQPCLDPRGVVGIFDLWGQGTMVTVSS VL: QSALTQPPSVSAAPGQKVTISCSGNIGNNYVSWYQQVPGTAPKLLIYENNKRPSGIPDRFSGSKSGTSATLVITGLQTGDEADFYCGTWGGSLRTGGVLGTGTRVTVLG ?
Ans: 0.113

Q: neutralization IC50 for CAP256-VRC26.11 (antibody, V domains shown) VH: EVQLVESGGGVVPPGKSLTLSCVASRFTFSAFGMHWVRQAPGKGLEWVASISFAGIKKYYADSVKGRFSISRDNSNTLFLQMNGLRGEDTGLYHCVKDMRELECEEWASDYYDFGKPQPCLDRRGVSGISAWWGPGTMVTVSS VL: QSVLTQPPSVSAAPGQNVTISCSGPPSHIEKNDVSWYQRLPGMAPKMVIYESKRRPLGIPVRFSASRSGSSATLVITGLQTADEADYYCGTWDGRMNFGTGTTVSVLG ?
Ans: 0.055

Q: neutralization IC50 for CAP256-VRC26.09 (antibody, V domains shown) VH: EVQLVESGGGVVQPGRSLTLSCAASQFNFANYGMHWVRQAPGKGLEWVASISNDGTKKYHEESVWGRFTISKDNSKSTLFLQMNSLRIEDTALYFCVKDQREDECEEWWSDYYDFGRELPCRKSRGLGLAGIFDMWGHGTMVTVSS VL: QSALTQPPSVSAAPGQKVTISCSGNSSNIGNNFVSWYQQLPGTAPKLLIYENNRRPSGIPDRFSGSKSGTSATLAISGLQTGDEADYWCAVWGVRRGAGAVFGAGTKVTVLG ?
Ans: 0.011
